Items are presented alongside their recorded phosphorylation enrichment.
# Tested on: AncSZ
# ASSAY_SUMMARY: phosphorylation enrichment, bacterial display (enrichment ratio); higher = better substrate or ligand; peptides without Tyr show the background
Reply: number alone, nothing else.

Previously resolved entries follow.
[[record]]
primary_sequence = "IRTIDYRYTVW [IDS_Y497]"
target_entity = "AncSZ"
assay_readout = "phosphorylation enrichment"
reading = 1.15

[[record]]
primary_sequence = "GLPQTYCVSGP [DYSF_Y1684]"
target_entity = "AncSZ"
assay_readout = "phosphorylation enrichment"
reading = 0.978

[[record]]
primary_sequence = "HSYNSYTYPRL [PAK5_Y316]"
target_entity = "AncSZ"
assay_readout = "phosphorylation enrichment"
reading = 0.776

[[record]]
primary_sequence = "INVTIYGKTFR [EFHC1_Y177_I174V]"
target_entity = "AncSZ"
assay_readout = "phosphorylation enrichment"
reading = 1.18

[[record]]
primary_sequence = "LANNEYYFQVC"
target_entity = "AncSZ"
assay_readout = "phosphorylation enrichment"
reading = 3.4

[[record]]
primary_sequence = "ILTYKYLQKPM [KIT_Y547]"
target_entity = "AncSZ"
assay_readout = "phosphorylation enrichment"
reading = 0.666


Per the reported AncSZ data, MARDIYQASFF [LTK_Y672_R673Q_YF] has phosphorylation enrichment of 0.966

Per the reported AncSZ data, FQASFYRRGDR [LTK_Y677_R673Q_YF] has phosphorylation enrichment of 0.717

----------
# TARGET_ENTITY: Hck (UniProt P08631)
# Sequence (P08631 whole entry, looked up): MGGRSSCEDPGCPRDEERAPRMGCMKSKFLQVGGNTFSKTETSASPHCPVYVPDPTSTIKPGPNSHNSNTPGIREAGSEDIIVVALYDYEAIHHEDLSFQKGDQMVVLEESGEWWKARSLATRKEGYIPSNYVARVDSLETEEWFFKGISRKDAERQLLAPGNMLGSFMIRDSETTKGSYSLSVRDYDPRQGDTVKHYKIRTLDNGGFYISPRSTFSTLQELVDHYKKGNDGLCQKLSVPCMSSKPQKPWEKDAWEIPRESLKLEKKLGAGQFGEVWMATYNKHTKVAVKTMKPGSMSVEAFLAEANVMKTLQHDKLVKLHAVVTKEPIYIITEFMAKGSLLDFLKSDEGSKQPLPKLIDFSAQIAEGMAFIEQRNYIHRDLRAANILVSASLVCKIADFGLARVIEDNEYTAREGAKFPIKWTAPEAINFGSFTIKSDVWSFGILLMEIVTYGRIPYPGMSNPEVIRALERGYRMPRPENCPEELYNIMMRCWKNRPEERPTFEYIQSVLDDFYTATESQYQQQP
# ASSAY_SUMMARY: phosphorylation enrichment, bacterial display (enrichment ratio); higher = better substrate or ligand; peptides without Tyr show the background
Rule: phosphorylation enrichment of 0.7 or more gives TRUE; anything lower gives FALSE.

# count of solved cases: 5
[[record]]
primary_sequence = "PKSWNYELPAT [PROM1_Y34_A31S]"
class_assignment = "TRUE"

[[record]]
primary_sequence = "KANEFYPVVII [ADAMTS18_Y765_L769I_YF]"
class_assignment = "FALSE"

[[record]]
primary_sequence = "MSRNLYSGDFF [DDR2_Y736_YF]"
class_assignment = "TRUE"

[[record]]
primary_sequence = "CEHRGCLFLAI [TEK_Y897_Y897C_YF]"
class_assignment = "FALSE"

[[record]]
primary_sequence = "ADKAAYLQNLN [MYH1_Y389]"
class_assignment = "FALSE"


Consider the additional sequence presented here.
State whether the measured phosphorylation enrichment reaches 0.7, counting equality as reaching it, for QGLRLYRSHLA [BTK_Y617_P619S]
FALSE

----------
# TARGET_ENTITY: c-Src SH2;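 also: peptide library displayed on the E. coli surface as eCPX fusions, selected cells deep-sequenced, score is each peptide's frequency after selection divided by its frequency in the input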
# ASSAY_SUMMARY: SH2 binding enrichment of the phosphorylated peptide, bacterial display (enrichment ratio); higher = better substrate or ligand; peptides without Tyr show the background
ASSAY_READOUT: SH2 binding enrichment

Previously resolved entries follow.
[[record]]
primary_sequence = "IVFTSYFLTIL [TAS2R16_Y239]"
reading = 0.897

[[record]]
primary_sequence = "RSAGKYDVYLI [MECP2_Y120]"
reading = 0.579

[[record]]
primary_sequence = "RAEAPYLLVSN [LRIG1_Y1054_Q1053P]"
reading = 0.695

[[record]]
primary_sequence = "HSYNSYTYPRL [PAK5_Y316]"
reading = 9.16

[[record]]
primary_sequence = "WKGSWYSMRKM [FGB_Y475]"
reading = 1.97

[[record]]
primary_sequence = "HLQDEYDFKCK [STAT1_Y170_D165H]"
reading = 0.423


For this sequence ( FGEFRYRSVIK [CFTR_Y517_D513G_YF] ), measured SH2 binding enrichment is 0.423

Value source: the supplement of paper PMC10065799
